system_under_test: Progesterone receptor (Homo sapiens) (UniProt P06401)
Sequence (P06401 whole entry, looked up): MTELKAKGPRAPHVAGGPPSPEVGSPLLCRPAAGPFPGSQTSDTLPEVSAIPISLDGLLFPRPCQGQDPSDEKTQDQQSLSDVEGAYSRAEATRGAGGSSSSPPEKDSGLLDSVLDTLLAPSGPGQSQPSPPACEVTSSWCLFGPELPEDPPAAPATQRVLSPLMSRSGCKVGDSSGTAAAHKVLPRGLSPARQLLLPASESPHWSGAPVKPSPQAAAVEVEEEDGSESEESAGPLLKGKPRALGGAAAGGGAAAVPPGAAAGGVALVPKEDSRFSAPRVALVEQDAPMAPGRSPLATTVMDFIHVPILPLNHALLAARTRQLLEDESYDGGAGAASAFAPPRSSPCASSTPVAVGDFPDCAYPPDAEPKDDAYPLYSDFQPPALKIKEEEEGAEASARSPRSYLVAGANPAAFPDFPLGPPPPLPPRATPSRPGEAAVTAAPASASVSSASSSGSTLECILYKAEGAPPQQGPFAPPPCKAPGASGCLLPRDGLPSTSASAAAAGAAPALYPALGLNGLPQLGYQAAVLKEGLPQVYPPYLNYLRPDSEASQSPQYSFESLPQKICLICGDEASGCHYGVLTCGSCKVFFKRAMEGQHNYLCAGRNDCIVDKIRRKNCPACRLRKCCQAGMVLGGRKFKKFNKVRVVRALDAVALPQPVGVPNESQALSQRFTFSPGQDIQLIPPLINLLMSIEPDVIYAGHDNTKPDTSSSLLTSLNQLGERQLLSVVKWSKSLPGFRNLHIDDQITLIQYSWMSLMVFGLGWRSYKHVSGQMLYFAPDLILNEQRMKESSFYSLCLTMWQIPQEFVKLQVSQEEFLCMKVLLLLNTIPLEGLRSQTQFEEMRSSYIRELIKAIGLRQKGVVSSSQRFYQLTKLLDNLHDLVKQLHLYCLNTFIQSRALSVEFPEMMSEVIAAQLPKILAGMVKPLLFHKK
assay_notes: qHTS assay to identify small molecule antagonists of the progesterone receptor (PR) signaling pathway (AID 1346795); further: on the % scale 0 is the no-effect control and ±100 the full control effect
settings: PR-UAS-bla HEK293T, beta-lactamase FRET ratio, 16 h; series mostly up to 92.4 µM
Results filed as inconclusive are left out. Active and inactive are the calls of the source. The call rests on the fitted dose curve; in most records, active means well fitted inhibition curve with a large enough effect in the signal ratio in the repeat runs (not every such curve was filed as active); inconclusive means weak or mixed curves; inactive means flat fitted curve, though single readings scatter; the % refers to the signal ratio.
attribute_measured: activity change, negative = inhibition

compound: NCC(=O)O
assay_result: 9.41% [at 18.9 µM] (inactive)
--
compound: CN(C)c1ccc(/C=C/c2ccc([N+](=O)[O-])cc2)cc1
assay_result: -17.2% [at 8.39 µM] (inactive)
--
compound: CC(CSC(=O)c1ccccc1)C(=O)N1C[C@@H](Sc2ccccc2)C[C@H]1C(=O)O (some centres undefined)
assay_result: 1.77% [at 18.9 µM] (inactive)
--
compound: C/C(=C(\CCOP(=O)(O)O)SC(=O)c1ccccc1)N(C=O)Cc1cnc(C)nc1N
assay_result: 5.03% [at 8.39 µM] (inactive)
